assay: Confirmation and Secondary Assay for Modulators of Hemoglobin Beta Chain Splicing at IVS2 705 locus (AID 930); details: HeLa EGFP-705 splicing reporter, GFP fluorescence, 48 h; series mostly up to 46.1 µM;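 note: HeLa cells stably expressing the EGFP-705 splicing reporter; GFP fluorescence per well restored by corrected splicing of the IVS2-705 intron in EGFP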
Calls of active or inactive are those of the source. Calls come from the whole dose curve; as a rule, active = well fitted activation curve with a large enough effect; inconclusive = small, poorly fitted or top-dose-only effect; inactive = flat fitted curve, though single readings scatter.
endpoint_name: outcome

Some compounds with known outcome results, for comparison:
compound | outcome
CC(C)(O)CCC(O)[C@@](C)(O)C1CC[C@]2(O)C3=CC(=O)C4CC(O)C(O)C[C@]4(C)C3CC[C@]12C (some centres undefined) | inactive
O=C(O)CN(CC(=O)O)Cc1cc2c(-c3ccccc3C(=O)O)c3cc(CN(CC(=O)O)CC(=O)O)c(=O)cc-3oc2cc1O | inactive
COc1cc(C(=O)OC2CC[C@]3(C)C4CCC5[C@]6(O)CC(O)[C@]7(O)C(CN8CC(C)CCC8[C@]7(C)O)[C@]6(O)C[C@@]53O[C@]24O)cc(OC)c1OC (some centres undefined) | inactive
COc1c(-c2coc3cc4c(cc3c2=O)CC(O)C(C)(C)O4)ccc2c1C=CC(C)(C)O2 (centres undefined) | inactive
CC(CCC(=O)O)C1CCC2C3CC[C@H]4CC(O)CC[C@@]4(C)C3CC(O)[C@]12C (some centres undefined) | inactive
CC(C)C1=CC2=CCC3[C@@](C)(CCC[C@@]3(C)C(=O)O)C2CC1 (some centres undefined) | inactive
COc1cc(O)cc(OC)c1OC | inactive
COC(=O)CC1C(C)(C)C(OC(C)=O)C2CC3=C4CC(=O)OC(c5ccoc5)[C@]4(C)CCC3[C@@]1(C)C2=O (some centres undefined) | inactive
CCOC(=O)c1c(C)cc(O)cc1O | inactive
CC1CCC2(C(=O)O)CCC3(C)C(=CCC4C3(C)CCC3[C@@]4(C)CC(O)C(O)[C@@]3(C)CO)C2C1C (some centres undefined) | inactive

In: Please look up its outcome: CC(C)C1COc2cc3oc(=O)ccc3cc2O1 (centres undefined)
Out: inactive

In: I'd like to know its outcome. The compound in question is "CCCCCCCCCCCCCc1ccco1"
Out: inactive

In: Reported outcome, compound C[C@@H]1OC(OC2C(OC3CC[C@@]4(C)C5CC=C6C7CC(C)(C)CC[C@@]7(C(=O)O)CCC6(C)C5(C)CCC4[C@]3(C)CO)OCC(O)C2O)C(O)C(O)C1O (some centres undefined) : ____
Out: inactive

In: Bench note: what outcome did "COc1ccc(-c2coc3cc(OC(C)=O)cc(OC(C)=O)c3c2=O)cc1" show?
Out: inactive

In: Query: outcome; subject: C#C[C@@]1(O)CCC2C3CCC4=CC(=O)CCC4C3CC[C@@]21CC (some centres undefined)
Out: inactive

====

tested on: C2A; assay: qHTS profiling for inhibitors of Plasmodium falciparum proliferation (AID 504749); note: nearly all actives have a fitted effect of over 60% in size; conditions: P. falciparum in erythrocytes, SYBR Green DNA, 72 h; series mostly up to 12.8 µM
Records with an inconclusive call do not appear. Activity calls are given as the source filed them. Calls come from the whole dose curve; as a rule, active = well fitted inhibition curve with a large enough effect; inconclusive = small, poorly fitted or top-dose-only effect; inactive = flat fitted curve, though single readings scatter.
// classify into YES for active, NO for inactive

Use these answered entries as a reference point.
compound | label_value
CC(=O)OCC(=O)[C@@]12OC(C)(C)O[C@@H]1C[C@H]1[C@H]3C[C@H](F)C4=CC(=O)C=C[C@@]4(C)[C@]3(F)[C@H](O)C[C@@]12C | NO
OCCN1CCN(CCC=C2c3ccccc3Sc3ccc(Cl)cc32)CC1 | NO
Cc1cccc(C)c1NC(=O)[C@H](C)N | NO

In: // return assay outcome for "Nc1nc(NC2CC2)c2ncn([C@H]3C=C[C@@H](CO)C3)c2n1"
Out: NO

In: Could you check what this test reported for "O[C@@](CCN1CCCC1)(c1ccccc1)C1CCCCC1" ?
Out: NO

In: Lab log entry: "CC(C)(C)NC[C@H](O)COc1cccc2c1CCC(=O)N2" — outcome as called in the assay?
Out: NO

In: Dear all, I need the recorded test outcome for "CCN(CC)[C@@H](C)CN1c2ccccc2Sc2ccccc21" , thank you.
Out: NO

In: Outcome? "Cn1nnnc1SCC1=C(C(=O)O)N2C(=O)[C@@H](NC(=O)[C@@H](O)c3ccccc3)[C@@H]2SC1"
Out: NO

In: Hi, sorry to bother you, what did the test record for "CO[C@H]1[C@@H](OC(N)=O)[C@H](O)[C@@H](Oc2ccc3c(O)c(NC(=O)c4ccc(O)c(CC=C(C)C)c4)c(=O)oc3c2C)OC1(C)C" ?
Out: NO

In: // return assay outcome for CCC(C)C(=O)OC1CC(O)C=C2C=CC(C)C(CCC(O)CC(O)CC(=O)O)C21 (stereo not drawn)
Out: NO

In: Can you look up the reported call for "CC(=O)OCC(=O)[C@@]1(O)CC[C@@H]2[C@H]3CCC4=CC(=O)C=C[C@]4(C)[C@]3(F)[C@@H](O)C[C@@]21C" for me?
Out: NO

In: Can you look up the reported call for "COc1ccccc1OC[C@H](O)CO" for me?
Out: NO

In: Please indicate how the test categorized COc1cc(C2c3cc4c(cc3C(O[C@@H]3OC5COC(c6cccs6)OC5C(O)C3O)C3COC(=O)C23)OCO4)cc(OC)c1O (stereo partly drawn) .
Out: YES

In: Tell me the recorded outcome of this test for OCC1OC([S-])[C@H](O)C(O)C1O.[Au+] (stereo partly drawn) .
Out: NO

In: Tell me the recorded outcome of this test for "C[C@H](Oc1ccccc1)C(=O)N[C@@H]1C(=O)N2[C@@H]1SC(C)(C)[C@@H]2C(=O)O" .
Out: NO

In: Please let me know the test result on file for C=Cc1c(C)c2cc3nc(cc4[nH]c(cc5nc(cc1[nH]2)C(C)=C5CCC(=O)O)c(CCC(=O)OC)c4C)[C@@]1(C)C3=CC=C(C(=O)OC)[C@H]1C(=O)OC (tested in a mixture with another compound) .
Out: YES

In: Would you mind telling me which call this test gave "O=C(O)[C@@H]1CCCN1" ?
Out: NO

In: Returns: the outcome recorded for "CCN1CCC[C@@H](OC(=O)C(c2ccccc2)c2ccccc2)C1" in this assay.
Out: NO

In: Hi team, can someone confirm the assay call for "c1ccc2c(c1)CCC[C@@H]2C1=NCCN1" ?
Out: NO

In: What is the recorded call for this compound in the test? Nc1nc2ncc(CNc3ccc(C(=O)NC(CCC(=O)O)C(=O)O)cc3)nc2c(=O)[nH]1 (stereo not drawn)
Out: NO

In: Short answer needed: outcome of this test for C[C@@]12C=CC(=O)C=C1CCC1C3CC(O)[C@@](O)(C(=O)CO)[C@]3(C)CC(O)[C@]12F (stereo partly drawn) ?
Out: NO

In: Returns: the outcome recorded for CNC1C(OC2C(O[C@@H]3C(O)C(O)[C@@H](N=C(N)N)C(O)C3N=C(N)N)OC(C)[C@@]2(O)CO)OC(CO)C(O)C1O (stereo partly drawn) in this assay.
Out: NO

In: # fetch the recorded call for "NC[C@@H]1O[C@@H](O[C@H]2[C@H](O)[C@H](O[C@@H]3O[C@H](CO)[C@@H](O)[C@H](N)[C@@H]3O)[C@@H](N)C[C@H]2N)[C@H](N)C[C@@H]1O" here
Out: NO

In: Call for entry "C[C@]1(c2ccccc2)OC(C(=O)O)=CC1=O" :
Out: NO

In: Record lookup: outcome of this test for COC1C=CO[C@@]2(C)Oc3c(C)c(O)c4c(O)c(c(C=NN5CCN(C)CC5)c(O)c4c3C2=O)NC(=O)/C(C)=C\C=CC(C)C(O)[C@@H](C)C(O)C(C)[C@H](OC(C)=O)C1C (stereo partly drawn) ?
Out: YES
